Tested on: Wolbachia pipientis
procedure_text: Anti-Wolbachia Cell-Based Screen
Type: functional
Set-up: scale not given: in the data most compounds retested in dose-response had high values
experimental_context: 5 µM
Among all 48,000 compounds or so, about 13,000 (27%) showed an effect of 50% or more. The list shows a part of the results.
reported_endpoint: Percent Effect (%)
All answers are understood in %, so give the number only.

[
  {
    "molecule": "CC1c2ccc(F)cc2CCN1C(=O)c1nc(=O)[nH][nH]1 (stereo not given)",
    "value_observed": 110
  },
  {
    "molecule": "O=C(c1cnccn1)N1CC[C@H]2[C@H]1CCN2S(=O)(=O)C1CC1",
    "value_observed": -1.574
  },
  {
    "molecule": "Cc1cc(C(=O)N2C[C@@H]3CN(S(C)(=O)=O)CCO[C@@H]3C2)c(C)o1",
    "value_observed": -7.965
  }
]

// Percent Effect lookup, key: Cc1cc(C(=O)N2CC[C@H]3[C@H]2CCN3S(C)(=O)=O)c(C)o1
109.3

// Percent Effect lookup, key: CCc1ccc(CN2CCN(C(=O)C(C)C)[C@@H]3CS(=O)(=O)C[C@@H]32)cc1
-2.722

Data origin, for the record: ChEMBL document CHEMBL3988442
